test system: A549 (non-small cell lung carcinoma) cells; experiment: SRB antiproliferative assay, A549; type: cell-based, human; conditions: 72 h, means ± SD
measured-quantity: IC50 (µM)
Reply numerically in µM, unit not repeated.

Query: Would you mind telling me what IC50 value was observed for N.N.[Cl][Pt][Cl] [cisplatin, reference compound] ?
Response: 3.07

###

Acetylcholinesterase (AChE, E.C. 3.1.1.7, from human erythrocytes) (Homo sapiens) pIC50 data
Sequence (P22303 other isoform, or with tags, fused parts or gaps): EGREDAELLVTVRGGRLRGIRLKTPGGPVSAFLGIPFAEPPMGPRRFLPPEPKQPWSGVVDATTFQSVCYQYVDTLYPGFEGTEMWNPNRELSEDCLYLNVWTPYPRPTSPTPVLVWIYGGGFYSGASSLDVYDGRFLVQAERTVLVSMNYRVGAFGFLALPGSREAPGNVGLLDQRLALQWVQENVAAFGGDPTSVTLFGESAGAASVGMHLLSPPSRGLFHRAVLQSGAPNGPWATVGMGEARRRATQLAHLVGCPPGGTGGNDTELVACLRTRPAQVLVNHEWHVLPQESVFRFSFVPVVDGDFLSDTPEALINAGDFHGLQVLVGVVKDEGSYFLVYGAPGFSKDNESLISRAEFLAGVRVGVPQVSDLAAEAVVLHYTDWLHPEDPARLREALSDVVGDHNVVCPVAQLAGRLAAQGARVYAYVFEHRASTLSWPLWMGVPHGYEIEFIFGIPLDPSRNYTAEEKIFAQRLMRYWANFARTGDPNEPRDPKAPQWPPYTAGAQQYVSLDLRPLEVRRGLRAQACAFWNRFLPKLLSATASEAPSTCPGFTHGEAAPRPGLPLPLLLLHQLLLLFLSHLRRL
Bear in mind: pIC50 is minus log10 of a mol/L concentration; give just that figure.

Query: Which pIC50 is reported with Acetylcholinesterase (AChE, E.C. 3.1.1.7, from human erythrocytes) (Homo sapiens) for this entry: `COC(=O)c1ccc2nc(-c3cc(Cl)c(O)cc3O)oc2c1` ?
Response: 6.08

Query: Which pIC50 is reported with Acetylcholinesterase (AChE, E.C. 3.1.1.7, from human erythrocytes) (Homo sapiens) for this entry: `CCc1cc(-c2nc3c(ccc4ccccc43)o2)c(O)cc1O` ?
Response: 6.29

Query: Which pIC50 is reported with Acetylcholinesterase (AChE, E.C. 3.1.1.7, from human erythrocytes) (Homo sapiens) for this entry: `COC(=O)c1ccc2nc(-c3ccc(O)c(O)c3O)oc2c1` ?
Response: 6.74
